Origin of measurements: the supplement of paper PMC10065799

Test system: c-Src;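 note: 11-residue human phosphosite peptides and single-mutation variants displayed on the E. coli surface, counted by deep sequencing, each peptide's frequency after selection divided by its frequency in the unselected input library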;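 note: frequency after pTyr selection over input frequency; kinase dosed for 20-30% of maximal phosphorylation in three min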
Experiment: phosphorylation enrichment, bacterial display (enrichment ratio); higher = better substrate or ligand; peptides without Tyr show the background
Each record's class is read off its phosphorylation enrichment using these ranges: bin 0: < 0.5; bin 1: ≥ 0.5 and < 0.7; bin 2: ≥ 0.7

Use these answered entries as a reference point.
PTKNDYWAMLA [WWOX_Y287] :: bin 2
FFRCHYPLTTL [TNS4_Y644_R642C] :: bin 0
SFPREYGSQEG [RBM10_Y48_YF] :: bin 0
RGVTHYILQTF [SLC39A4_Y359] :: bin 0
SNKELYEKYMI :: bin 2
SIVEDYRPPFF [ACVRL1_Y421_G416S_YF] :: bin 0
QGIFGYHHFMQ [UFSP2_Y287_YF] :: bin 1
KNEKVYTRHGV [FLOT1_Y56_S52N] :: bin 0
DQVEQYKKELE [LMNA_Y259] :: bin 1
ENAGYYFQVSA :: bin 0

*Q* Class label required: KTSGNYLAVTG [WDR19_Y28]
*A* bin 0

*Q* Class label required: IRRIAYEFVEM [ADA_Y84_K80R]
*A* bin 0

*Q* Class label required: RQQQDYWLIDV [ANPEP_Y600]
*A* bin 2
